System: P. aeruginosa SR01332
Experiment: MIC, CLSI broth microdilution, Test Example 2
Assay type: cell-based
Conditions: Pseudomonas aeruginosa, SR01332; VIM-11 MBL producing strain (carbapenem resistance strain); cation-adjusted Iso-Sensitest broth containing human Apo-transferrin; 5×10^5 cfu/mL; read-out: Minimum Inhibitory Concentration (MIC) P. aeruginosa SR01332
outcomeMeasure: MIC (µg/mL)
Answers are plain numbers, in µg/mL.

Below, 3 molecules whose answers are already recorded.
INSERT INTO results (molecule, quantitativeresult) VALUES
  ('CC(C)(O/N=C(\C(=O)N[C@@H]1C(=O)N2C(c3nnn[nH]3)=C(C[N+]3(CCNC(=O)c4cc(O)c(O)c(F)c4)CCCC3)CS[C@H]12)c1nsc(N)n1)C(=O)[O-]', 2),
  ('Nc1nc(/C(=N/O[C@@H](CC(=O)[O-])C(=O)[O-])C(=O)N[C@@H]2C(=O)N3C(c4nnn[n-]4)=C(C[N+]45CCC[C@H]4CN(C(=O)c4cc(O)c(O)c(F)c4)CC5)CS[C@H]23)cs1.[Na+].[Na+] (stereo partly drawn)', 2),
  ('CC(C)(O/N=C(\C(=O)N[C@@H]1C(=O)N2C(c3nnn[nH]3)=C(C[N+]3(C)CCN(C(=O)c4ccc(O)c(O)c4Cl)CC3)CS[C@H]12)c1nsc(N)n1)C(=O)O.[Na+]', 8);

Please report MIC for every entry that follows.
1. CC(C)(O/N=C(\C(=O)N[C@@H]1C(=O)N2C(c3nnn[nH]3)=C(C[N@+]34CCC[C@H]3CN(C(=O)c3ccc(O)c(O)c3Cl)CC4)CS[C@H]12)c1nsc(N)n1)C(=O)[O-]
2. CC(C)(O/N=C(\C(=O)N[C@@H]1C(=O)N2C(c3nnn[n-]3)=C(C[N+]3(CCNC(=O)c4ccc(O)c(O)c4Cl)CCCCC3)CS[C@H]12)c1nc(N)sc1Cl)C(=O)[O-].[Na+]
3. CC(C)(O/N=C(\C(=O)N[C@@H]1C(=O)N2C(c3nnn[n-]3)=C(C[N@+]34CCC[C@H]3CN(C(=O)c3cc(O)c(O)c(Cl)c3)CC4)CS[C@H]12)c1nc(N)sc1Cl)C(=O)[O-].[Na+]
4. CC(C)(O/N=C(\C(=O)N[C@@H]1C(=O)N2C(c3nnn[nH]3)=C(C[N@+]34CCC[C@H]3CN(C(=O)c3ccc(O)c(O)c3Cl)CC4)CS[C@H]12)c1csc(N)n1)C(=O)[O-]

output:
4
4
4
8

List the reported MIC of each molecule below.
1. CC(C)(O/N=C(\C(=O)N[C@@H]1C(=O)N2C(c3nnn[n-]3)=C(C[N@+]34CCC[C@H]3CN(C(=O)c3cc(O)c(O)c(F)c3)CC4)CS[C@H]12)c1nc(N)sc1Cl)C(=O)[O-].[Na+]
2. Cc1cc2cc(O)c(O)cc2c[n+]1CC1=C(c2nnn[n-]2)N2C(=O)[C@@H](NC(=O)/C(=N\OC(C)(C)C(=O)[O-])c3nc(N)sc3Cl)[C@H]2SC1.[Na+]

output:
1: 4; 2: 0.5

---

Provide the recorded MIC for the entries that follow.
System: P. aeruginosa SR27060
Assay: MIC, CLSI broth microdilution, Test Example 1
Assay type: cell-based
Conditions: Pseudomonas aeruginosa, SR27060; IMP-1 MBL producing strain (carbapenem resistance strain); cation-adjusted Mueller Hinton broth containing human apo-transferrin; 5×10^5 cfu/mL; read-out: Minimum Inhibitory Concentration (MIC) P. aeruginosa SR27060
Answers are plain numbers, in mg/L.

INSERT INTO results (molecule, measuredtarget, quantitativeresult) VALUES
  ('CC(C)(O/N=C(\C(=O)N[C@@H]1C(=O)N2C(c3nnn[nH]3)=C(C[n+]3cccc4c3CCCN4C(=O)c3ccc(O)c(O)c3Cl)CS[C@H]12)c1csc(N)n1)C(=O)[O-] [Compound I-75]', 'P. aeruginosa SR27060', 0.25),
  ('CC(C)(O/N=C(\C(=O)N[C@@H]1C(=O)N2C(c3nn[n-]n3)=C(C[n+]3ccc(NCc4ccc(O)c(O)c4Cl)cc3)CS[C@H]12)c1csc(N)n1)C(=O)[O-].[Na+] [Compound I-49]', 'P. aeruginosa SR27060', 1),
  ('CC(C)(O/N=C(\C(=O)N[C@@H]1C(=O)N2C(c3nnn[n-]3)=C(C[N+]3(CCNC(=O)c4cc(O)c(O)cc4Cl)CCCC3)CS[C@H]12)c1csc(N)n1)C(=O)[O-].[Na+] [Compound I-50]', 'P. aeruginosa SR27060', 1);

// each listed molecule needs a value for MIC
1. CC(C)(O/N=C(\C(=O)N[C@@H]1C(=O)N2C(c3nnn[n-]3)=C(C[N+]3(CCNC(=O)c4cc(O)c(O)cc4F)CCCC3)CS[C@H]12)c1csc(N)n1)C(=O)[O-].[Na+] [Compound I-55]
2. CC(C)(O/N=C(\C(=O)N[C@@H]1C(=O)N2C(c3nnn[n-]3)=C(Cn3cc4ccc(CNC(=O)c5ccc(O)c(O)c5Cl)c[n+]4c3)CS[C@H]12)c1csc(N)n1)C(=O)[O-].[Na+] [Compound I-58]

output:
1: 1; 2: 0.5
